// Mean relative activity lookup, one value per entry
Tested on: K562 CRISPRi cells
Assay: Constant region variant library pooled growth screen, K562
Type: cell-based, human
Conditions: sgRNA constant region variants; activity relative to the original, un-modified constant region cr995
assayEndpoint: Mean relative activity

{"molecule": "cr645 (nucleic acid, listed as DNA, chemistry not fully specified) guide: GTTTAAGAGCTAAGCTGGAAACAGCATAGCAAGTTTAAATAAGCCTAGTGCGTTATCAACGTGAAAACGTGGCACGGAGTCCGTGCT", "valueObserved": 0.7179}
{"molecule": "cr796 (nucleic acid, listed as DNA, chemistry not fully specified) guide: GTTTAAGAGCTAAGCTGGAAACAGCATAGCAAGTTAAAATAAGGCTAGTCCGTTATCAACTTGAAAAAGTGGCACCGAGTCGGTGCT", "valueObserved": 0.096}
{"molecule": "cr199 (nucleic acid, listed as DNA, chemistry not fully specified) guide: GTTTAAGAGCTAAGCTGGAAACAGCATAGCAAGTTTAAATAAGGCTAGTCCGTTATCAACTTGAGAAAGTGGCACCTAGTAGGTGCT", "valueObserved": 0.7949}
{"molecule": "cr776 (nucleic acid, listed as DNA, chemistry not fully specified) guide: GTTTAAGAGCTAAGCTGGAAACAGCATAGCAAGTTTAAATAAGGCTAGTCCGTTATCATCTAGAAATAGAGGCACCGAGTCGGTGCT", "valueObserved": 1.037}
